# Test system: HUVEC/MSC spheroids viability
# method notes: Human HUVEC/MSC cell line growth inhibition [KRAS2];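 note: percent of DMSO vehicle control luminescence so 100% = untreated viability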
# conditions: second compound 0.316 µM; first compound 3 µM; active compounds read low
# viability, T/C per record follows

Below, 2 compounds whose answers are already recorded.
Please report the measured viability, T/C for CC(=O)OC12COC1CC(O)C1(C)C(=O)C(O)C3=C(C)C(OC(=O)C(O)C(NC(=O)OC(C)(C)C)c4ccccc4)CC(O)(C(OC(=O)c4ccccc4)C21)C3(C)C (stereo not drawn) + CNCc1ccccc1-c1csc(C(C)Nc2nc(C)nc3cc(OC)c(OC)cc23)c1 49%

Please report viability, T/C for the following compound: CC(=O)OC12COC1CC(O)C1(C)C(=O)C(O)C3=C(C)C(OC(=O)C(O)C(NC(=O)OC(C)(C)C)c4ccccc4)CC(O)(C(OC(=O)c4ccccc4)C21)C3(C)C (stereo not drawn) + COc1cc2nc(C)nc(NC(C)c3cc(N)cc(C(F)(F)F)c3)c2cc1OC1CCOC1 57.1%

---
Please report the measured viability, T/C for CC1COCCN1c1cc(-c2ccnn2C)c2ccnc(-c3ccn[nH]3)c2n1 (stereo not drawn) + CC1OCC2(CCN(c3cnc(Sc4ccnc(N)c4Cl)c(N)n3)CC2)C1N 46.4%

---

# Tested on: HUVEC/MSC spheroids viability
# method notes: Human HUVEC/MSC cell line growth inhibition [KRAS2];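 note: percent of DMSO vehicle control luminescence so 100% = untreated viability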
# conditions: second compound 3 µM; first compound 0.01 µM; active compounds read low
Quick reference: viability, T/C of the listed items.
Numbers only; they are read as %.

The following compounds have reported results that may help.
Respond only with viability, T/C recorded for CC(C)n1nc(-c2ccc3oc(N)nc3c2)c2c(N)ncnc21 + C=CC(=O)N1CCN(c2nc(OCC3CCCN3C)nc3c2CCN(c2cccc4cccc(C)c24)C3)CC1CC#N 58.6

Return viability, T/C (reported value) for this compound: Cn1ncnc1[C@H]1c2n[nH]c(=O)c3cc(F)cc(c23)N[C@@H]1c1ccc(F)cc1 + C=CC(=O)N1CCN(c2nc(OCC3CCCN3C)nc3c2CCN(c2cccc4cccc(C)c24)C3)CC1CC#N 88.5

Given the compound CN(C)C/C=C/C(=O)Nc1cc2c(Nc3ccc(F)c(Cl)c3)ncnc2cc1O[C@H]1CCOC1 + C=CC(=O)N1CCN(c2nc(OCC3CCCN3C)nc3c2CCN(c2cccc4cccc(C)c24)C3)CC1CC#N , write its reported viability, T/C. 73.8

Kindly consider the entry below.
Specify reported viability, T/C for the compound shown: CCN1CCN(Cc2ccc(Nc3ncc(F)c(-c4cc(F)c5nc(C)n(C(C)C)c5c4)n3)nc2)CC1 + C=CC(=O)N1CCN(c2nc(OCC3CCCN3C)nc3c2CCN(c2cccc4cccc(C)c24)C3)CC1CC#N 85.2

---

# Test system: HUVEC/MSC spheroids viability
# method notes: Human HUVEC/MSC cell line growth inhibition [KRAS2];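 note: percent of DMSO vehicle control luminescence so 100% = untreated viability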
# conditions: compound 0.0316 µM; active compounds read low
measured property: viability, T/C

Solved cases below.
Give reported viability, T/C for CCN1CCN(Cc2ccc(Nc3ncc(F)c(-c4cc(F)c5nc(C)n(C(C)C)c5c4)n3)nc2)CC1 (HUVEC/MSC spheroids viability) 87.7% [middle of 5 runs]

With HUVEC/MSC spheroids viability as the test system, provide measured viability, T/C for this molecule: CCNC(=O)CC1N=C(c2ccc(Cl)cc2)c2cc(OC)ccc2-n2c(C)nnc21 (stereo not given) 87.2% [middle of 5 runs]

Look up HUVEC/MSC spheroids viability data: viability, T/C of CNCc1ccccc1-c1csc(C(C)Nc2nc(C)nc3cc(OC)c(OC)cc23)c1 (stereo not given) , then report it. 88.4% [middle of 9 runs]

***
State, for HUVEC/MSC spheroids viability, measured viability, T/C of the molecule listed here: COc1cc2nccc(Oc3ccc(NC(=O)C4(C(=O)Nc5ccc(F)cc5)CC4)cc3)c2cc1OC 76.8% [middle of 5 runs]

// fetch viability, T/C for CN(C)C/C=C/C(=O)Nc1cc2c(Nc3ccc(F)c(Cl)c3)ncnc2cc1O[C@H]1CCOC1 ; system: HUVEC/MSC spheroids viability 85.3% [middle of 5 runs]

---

viability, T/C values for the compounds below.
# System: HUVEC/MSC spheroids viability
# method notes: Human HUVEC/MSC cell line growth inhibition [KRAS2];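 note: percent of DMSO vehicle control luminescence so 100% = untreated viability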
# conditions: second compound 3 µM; first compound 10 µM; active compounds read low
Give the quantity in %, number only.

Give viability, T/C for the following compound: CC(C)NCC(C(=O)N1CCN(c2ncnc3c2C(C)CC3O)CC1)c1ccc(Cl)cc1 (stereo not drawn) + C=CC(=O)N1CCN(c2nc(OCC3CCCN3C)nc3c2CCN(c2cccc4cccc(C)c24)C3)CC1CC#N 51.9

Continuing:
Look up viability, T/C of CCNC(=O)CC1N=C(c2ccc(Cl)cc2)c2cc(OC)ccc2-n2c(C)nnc21 (stereo not drawn) + C=CC(=O)N1CCN(c2nc(OCC3CCCN3C)nc3c2CCN(c2cccc4cccc(C)c24)C3)CC1CC#N and report it. 54.3

Please report the measured viability, T/C for COC(=O)c1ccc2c(C(=Nc3ccc(N(C)C(=O)CN4CCN(C)CC4)cc3)c3ccccc3)c(O)[nH]c2c1 + C=CC(=O)N1CCN(c2nc(OCC3CCCN3C)nc3c2CCN(c2cccc4cccc(C)c24)C3)CC1CC#N 0.33

---

# Tested on: HUVEC/MSC spheroids viability
# method notes: Human HUVEC/MSC cell line growth inhibition [KRAS2];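 note: percent of DMSO vehicle control luminescence so 100% = untreated viability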
# conditions: second compound 0.0949 µM; first compound 0.0316 µM; active compounds read low
Reported viability, T/C values follow for various compounds
Kindly provide the numeric value in % only, without the unit symbol.

Worked cases, viability, T/C given:
Look up and state reported viability, T/C for Cn1ncnc1[C@H]1c2n[nH]c(=O)c3cc(F)cc(c23)N[C@@H]1c1ccc(F)cc1 + C=CC(=O)N1CCN(c2nc(OCC3CCCN3C)nc3c2CCN(c2cccc4cccc(C)c24)C3)CC1CC#N 82.6

Supply recorded viability, T/C for CC(C)NCC(C(=O)N1CCN(c2ncnc3c2C(C)CC3O)CC1)c1ccc(Cl)cc1 (stereo not drawn) + C=CC(=O)N1CCN(c2nc(OCC3CCCN3C)nc3c2CCN(c2cccc4cccc(C)c24)C3)CC1CC#N here. 95.4

Please find the next compound below.
Quote viability, T/C reported for CC1(C)CCC(CN2CCN(c3ccc(C(=O)NS(=O)(=O)c4ccc(NCC5CCOCC5)c([N+](=O)[O-])c4)c(Oc4cnc5[nH]ccc5c4)c3)CC2)=C(c2ccc(Cl)cc2)C1 + C=CC(=O)N1CCN(c2nc(OCC3CCCN3C)nc3c2CCN(c2cccc4cccc(C)c24)C3)CC1CC#N please. 83.1

---

# Tested on: HUVEC/MSC spheroids viability
# method notes: Human HUVEC/MSC cell line growth inhibition [KRAS2];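 note: percent of DMSO vehicle control luminescence so 100% = untreated viability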
# conditions: second compound 0.0316 µM; first compound 0.3 µM; active compounds read low
# From the text: Multicellular complex tumor spheroid response to RAS pathway inhibitors in combination with a targeted agents in patient-derived cell lines with oncogenic KRAS variants from multiple cancer types A high-throughput screen of multi-cell type tumor spheroids was designed to identify active combinations of targeted small molecules and KRAS pathway inhibitors. […] Compounds. […] If the clinical Cmax for an agent had not been determined, the highest concentration tested was 10 microM. […]
measured property: viability, T/C (%)
Give just the numeric value; % need not be written.

Consider the compound CC1COCCN1c1cc(-c2ccnn2C)c2ccnc(-c3ccn[nH]3)c2n1 (stereo not drawn) + CNCc1ccccc1-c1csc(C(C)Nc2nc(C)nc3cc(OC)c(OC)cc23)c1 and give its recorded viability, T/C. 74.9

Give the reported viability, T/C for this compound. CC1COCCN1c1cc(-c2ccnn2C)c2ccnc(-c3ccn[nH]3)c2n1 (stereo not drawn) + CC1OCC2(CCN(c3cnc(Sc4ccnc(N)c4Cl)c(N)n3)CC2)C1N 72.4

Alright, here's another compound for you.
Assign viability, T/C to the following record: CC(=O)OC12COC1CC(O)C1(C)C(=O)C(O)C3=C(C)C(OC(=O)C(O)C(NC(=O)OC(C)(C)C)c4ccccc4)CC(O)(C(OC(=O)c4ccccc4)C21)C3(C)C (stereo not drawn) + COc1cc2nc(C)nc(NC(C)c3cc(N)cc(C(F)(F)F)c3)c2cc1OC1CCOC1 36.7

---

Property: viability, T/C; scope: individual compounds
# Test system: HUVEC/MSC spheroids viability
# method notes: Human HUVEC/MSC cell line growth inhibition [KRAS2];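 note: percent of DMSO vehicle control luminescence so 100% = untreated viability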
# conditions: second compound 0.03 µM; first compound 3.16 µM; active compounds read low
Answer format: numeric, % implied, no suffix.

Recorded results for 2 compounds are shown here.
Look up viability, T/C of COc1cc(Nc2ncc3c(n2)-c2ccc(Cl)cc2C(c2c(F)cccc2OC)=NC3)ccc1C(=O)O + C=CC(=O)N1CCN(c2nc(OCC3CCCN3C)nc3c2CCN(c2cccc4cccc(C)c24)C3)CC1CC#N and report it. 102

Entry CCNC(=O)CC1N=C(c2ccc(Cl)cc2)c2cc(OC)ccc2-n2c(C)nnc21 (stereo not drawn) + C=CC(=O)N1CCN(c2nc(OCC3CCCN3C)nc3c2CCN(c2cccc4cccc(C)c24)C3)CC1CC#N needs its viability, T/C filled in; supply it. 119

Could you now look at the following compound, please?
Identify measured viability, T/C corresponding to CC1(C)CCC(CN2CCN(c3ccc(C(=O)NS(=O)(=O)c4ccc(NCC5CCOCC5)c([N+](=O)[O-])c4)c(Oc4cnc5[nH]ccc5c4)c3)CC2)=C(c2ccc(Cl)cc2)C1 + C=CC(=O)N1CCN(c2nc(OCC3CCCN3C)nc3c2CCN(c2cccc4cccc(C)c24)C3)CC1CC#N 76

Data origin, for the record: PubChem BioAssay AID2060912
